Entries and their Inhibition values follow.
system: Cryptococcus neoformans; details: Concentration 32 ug.mL-1; ASSAY_TEST Inhibition of Fungal Growth; detection method Resazurin; Absorption (OD600-OD570); plate type 384well; NBS; CORNING #3640
Results with a measured potency or affinity are listed apart.
Hi! Could you send only the number? It should be in %, unit omitted.

compound	unit-tag	assay-result
N#Cc1c(N)nc(Cl)c(C#N)c1-c1ccccc1	%	-2.34
C#CCN(C)c1nc(OC)c(C#N)cc1C#N	%	-43.21
COc1cccc(C2c3ccc4ccccc4c3OC(=NBr)C2(Br)C#N)c1 (stereo not given)	%	-51.44

// below: Inhibition requested for another compound
Which Inhibition is reported for this compound? `NC(=O)N/N=C/c1c[nH]c2ccccc12`
-3.05

* * *

system: Klebsiella pneumoniae; details: Concentration 32 ug.mL-1; ASSAY_TEST Inhibition of Bacterial Growth; detection method Absorption (OD600); MEDIA CAMHB; plate type 384well; NBS; CORNING #3640; time 18 hr
Measured potencies and affinities stand elsewhere.
Entries and their Inhibition values follow.

compound	endpoint	assay-result
N#Cc1c(Cl)nc(N2CCCCC2)c(C#N)c1-c1ccccc1	Inhibition	-24.06%

Which Inhibition is reported for this compound? `COc1ccc2c(ccn2C)c1`
14.15%

Same for `Cl.ClCCCN1CCCCC1`
13.52%

Same for `Cc1ccccc1-c1c(C=N)c(N)nc2c1S(=O)(=O)OC2(C)C`
10.81%

Same for COc1ccccc1C1C(C#N)=C(N)Oc2ccc3ccccc3c21 (stereo not drawn)
9.04%

Same for COc1ccccc1C1C(C#N)=C(N)Oc2c1ccc1ccccc21 (stereo not drawn)
8.71%

Same for `O=C(N/N=C/Cc1ccccc1)c1cc2ccccc2[nH]1`
10.16%

Same for COc1ccc(C2c3c(ccc4ccccc34)OC(=N)C2(Br)C#N)cc1 (stereo not drawn)
10.22%

* * *

Entries and their Inhibition values follow.
test system: Cryptococcus neoformans; details: Concentration 32 ug.mL-1; ASSAY_TEST Inhibition of Fungal Growth; detection method Resazurin; Absorption (OD600-OD570); plate type 384well; NBS; CORNING #3640
Potency and affinity values are given separately.
Hi! Could you send only the number? It should be in %, unit omitted.

Reference set, count: 3
compound	unit-tag	assay-result
C#CCN(C)Cc1cc2cc(OCCCCC3CCN(Cc4ccccc4)CC3)ccc2n1C.Cl	%	-16.02
COc1ccccc1C1C(C#N)=C(N)Oc2ccc3ccccc3c21 (stereo unspecified)	%	-18.76
CCCCCCC(C)NNC(=O)c1cc2ccccc2[nH]1 (stereo unspecified)	%	-2.85

Which Inhibition is reported for this compound? `CCOc1nc(N)c(C#N)c(-c2ccccc2)c1C#N`
-46.51

Same for `CCOC(=O)/C(=C\c1ccccc1)C(=O)c1ccccc1`
-2.93

Same for `N#Cc1cc2c(N)c3c(nc2nc1Cl)CCCC3`
-42.44

Same for `N#Cc1cc(C#N)c(NCCCC2CCN(Cc3ccccc3)CC2)nc1N`
-57.65

Same for N#CC1=C(N)Oc2ccc3ccccc3c2C1c1ccccc1[N+](=O)[O-] (stereo unspecified)
-44.45

Same for `COc1ccc2c(c1)cc(CO)n2C`
-5.23

Same for `CC1=NC(=Cc2ccccc2)C(=O)S1`
-6.24

Same for `COc1ccc2cc(C=O)c(Cl)nc2c1`
26.83

Same for `Cc1ccc2[nH]c(=O)c(C=O)cc2c1`
4.75

Same for `C#CCNc1nc(NC2CCN(Cc3ccccc3)CC2)c(C#N)c(-c2ccccc2)c1C#N`
-52.49

Same for `O=C(N[C@H]1CC[C@H](O)CC1)c1ccccc1`
-38.05

Same for Cn1ccnc1C1c2c(nc3c(c2N)CCC3)Oc2ccc3ccccc3c21 (stereo unspecified)
-36.13

Same for `O=C(NN=Cc1c[nH]c2ccccc12)c1cccc2ccccc12`
-3.56

Same for `CCOC(=O)c1c(C)[nH]c2ccc(OC)cc12`
-2.15

* * *

test system: Cryptococcus neoformans; details: Concentration 32 ug.mL-1; ASSAY_TEST Inhibition of Fungal Growth; detection method Resazurin; Absorption (OD600-OD570); plate type 384well; NBS; CORNING #3640
Potency and affinity values are given separately.
endpoint: Inhibition (%)
Hi! Could you send only the number? It should be in %, unit omitted.

Reference set, count: 2
compound	Inhibition (%)
CSC1=NC2(CC2c2ccccc2)C(=O)N1 (configuration not stated)	1.03
N#Cc1cc(Br)cc(Br)c1N	-9.46

Which Inhibition is reported for this compound? `ClCCC1CCN(Cc2ccccc2)CC1`
-7.64

Same for `C#CCN(C)Cc1cc2cc(OCOc3ccc4c(c3)cc(CN(C)CC#C)n4C)ccc2n1C`
-41.21

Same for `CCOC(=O)c1c(C)nc(/N=N/c2nc(C)c(C(=O)OCC)c(-c3ccccc3)c2C#N)c(C#N)c1-c1ccccc1`
-2.65

Same for `c1ccc(CNc2ncnc3c2cnn3-c2ccccc2)cc1`
-6.46

Same for `COc1ccc(-c2cc(-c3cc4ccc(F)cc4nc3Cl)cc(=O)[nH]2)cc1`
-21.89

Same for `N#Cc1cc(C#N)c(N2CCCC2)nc1N`
-54.35

Same for `O=C(O)C(=Cc1ccccc1)NC(=O)c1ccccc1`
-6.77

* * *

system: Klebsiella pneumoniae; details: Concentration 32 ug.mL-1; ASSAY_TEST Inhibition of Bacterial Growth; detection method Absorption (OD600); MEDIA CAMHB; plate type 384well; NBS; CORNING #3640; time 18 hr
Measured potencies and affinities stand elsewhere.
endpoint: Inhibition (%)
Hi! Could you send only the number? It should be in %, unit omitted.

compound	Inhibition / %
O=C(O)c1c[nH]c2ccccc12	-9.13

Klebsiella pneumoniae / Inhibition / CCOC(=O)C1=C(C)Nc2nc3c(c(N)c2C1c1cccc(OC)c1)CCCC3 (configuration not stated) : value?
2.7

Same for CCCCCCC(C)NNC(=O)c1cc2ccccc2[nH]1 (configuration not stated)
-31.72

Same for `CNC(=O)c1cc2cc(OC)ccc2[nH]1`
17.99

Same for `Cc1nc2c3cnn(-c4ccccc4)c3nc(C)n2n1`
15.01

Same for Nc1c2c(nc3c1CC(c1c(Cl)cccc1Cl)C(=O)N3)CCCC2 (configuration not stated)
0.93

Same for N#CC1=C(Cl)Oc2c(ccc3ccccc23)C1c1ccc([N+](=O)[O-])cc1 (configuration not stated)
16.96

Same for `CCOC(N)=CC#N`
-6.69

Same for `N#Cc1cc(C#N)c(N2CCCCC2)nc1Cl`
12.8

Same for `CCOC(=O)c1c[nH]c2ccc(OCc3ccccc3)cc12`
12.72

Same for `O=C(O)C(=Cc1ccccc1)NC(=O)c1ccccc1`
27.9

Same for `C=C1CN(Cc2ccccc2)c2c(C#N)c(-c3ccccc3)c(C#N)c(=N)n21`
17.58

* * *

tested on: Candida albicans; details: 32 ug/mL
Measured potencies and affinities stand elsewhere.
endpoint: Inhibition (%)
Hi! Could you send only the number? It should be in %, unit omitted.

Reference set, count: 2
compound	assay-result
Cc1nc2c(cc1C#N)c(N)nn2C	3.97
C#CCNc1nc(NCCCC2CCN(Cc3ccccc3)CC2)c(C#N)cc1C#N.Cl	1.71

Which Inhibition is reported for this compound? `C#CCNc1nc(Cl)c(C#N)c(-c2ccccc2)c1C#N`
1.27

Same for `CC(=O)NCCc1ccccc1`
1.13

Same for CCOC(=O)C1=C(C)OC(N)=C(C#N)C1c1ccc([N+](=O)[O-])cc1 (centres undefined)
-0.07

Same for `C#CCNc1nc(NCCC2CCN(Cc3ccccc3)CC2)c(C#N)cc1C#N`
3.57

Same for `O=C1OC(c2ccccc2)=NC1=Cc1ccc(Cl)cc1`
1.2

Same for Cc1ccc(C2c3c(Cl)nnnc3Oc3ccc4ccccc4c32)cc1 (centres undefined)
2.22

Same for `OCc1c(-c2ccc(Br)cc2)nc2ccccn12`
4.83

Same for `Cc1nn(-c2ccccc2)c2ncnc(NCc3ccccc3)c12`
-0.21

* * *

tested on: Cryptococcus neoformans; settings: Concentration 32 ug.mL-1; ASSAY_TEST Inhibition of Fungal Growth; detection method Resazurin; Absorption (OD600-OD570); plate type 384well; NBS; CORNING #3640
Potency and affinity values are given separately.
endpoint: Inhibition
In your response, the unit should come after the numeric value.

Reference set, count: 5
compound	assayed-target	Inhibition
Cn1c(CO)cc2cc(OCCCC3CCN(Cc4ccccc4)CC3)ccc21	Cryptococcus neoformans	-53.31%
COc1ccc2c(c1)cc(C(=O)Nc1ccccc1)n2C	Cryptococcus neoformans	-38.47%
CNN=C1N=C(SCc2ccccc2)SC1=O	Cryptococcus neoformans	-3.27%
CCOc1nc2nc(CCc3ccccc3)ccc2c(-c2ccccc2)c1C#N	Cryptococcus neoformans	-42.89%
COc1cc(C2c3c(nc4c(c3N)CCCC4)Oc3ccc4ccccc4c32)cc(OC)c1OC (stereo unspecified)	Cryptococcus neoformans	-4.42%

// below: Inhibition requested for another compound
Cryptococcus neoformans / Inhibition / `COc1ccc2c(ccn2C)c1` : value?
-1.95%
